biological target: SERCA; experiment: Activation of SERCA, NADH-linked, enzyme-coupled ATPase assay with SR vesicles; conditions: concentration required for 50% activation of the maximum Vmax, pH 7.0, 5 mM ATP
Readout kind: EC50 (µM)
Quick note: give the figure in µM, leave out the unit.

Record excerpt, results attached:
>  <Molecule>
Cc1ccc2cccc(C(=O)Nc3ccc(OC(C)C)cc3)c2n1 [Compound A1]

>  <Unit tag>
µM

>  <EC50>
0.6

$$$$
>  <Molecule>
Cc1ccc2cccc(C(=O)Nc3ccc(Br)s3)c2n1 [Compound B2]

>  <Unit tag>
µM

>  <EC50>
1

$$$$

Now for the molecule whose EC50 we want.
(Q) Need EC50, item Cc1ccc2cccc(C(=O)Nc3cc(Br)cs3)c2n1 [Compound B1]
(A) 1.2
